Numbers sourced from the nanobody polyreactivity screen of Harvey et al. (2022).

experiment: yeast display, Sf9 membrane polyspecificity reagent, FACS + sequencing; frameworks hold sequencing errors
ASSAY ENDPOINT: polyreactivity (PSR sort gate)

INPUT SEQUENCE: QVQLVESGGGLVQAGGSLRLSCAASGIFGYNAMGWYIQAPGKERELVAAITSSGTSTYYADSVKGRFTISRDNAKNTVYLQMNSLKPEDTAVYYCAALHSGTWTGYGYWGQGTQVTVSS
polyreactivity (PSR sort gate): low polyreactivity
--
INPUT SEQUENCE: QVQLVESGGGLVQAGGSLRLSCAASGFTFDQYGMGWYRQAPGKERVLVAGISWGGGTTYYADSVKGRFTISRDNAKNTVYLQMNSLKPEDTAVYYCAAVRPGYPYYGSDYWGQGTQVTVSS
polyreactivity (PSR sort gate): low polyreactivity
--
INPUT SEQUENCE: QVQLVESGGGLVQAGGSLRLSCAASGFIFDFYAMGWYRQAPGKERELVATINSSGTTNYADSVKGRFTISRDNAKNTVYLQMNSLKPEDTAVYYCATVEYLGHYTYDYWGQGTQVTVSS
polyreactivity (PSR sort gate): low polyreactivity
--
INPUT SEQUENCE: QVQLVESGGGLVQAGGSLRLSCAASGSTFSKYAMGWYRQAPGKERELEAAITRTGGRTYYADSVKGRFTISRDNANNTVYLQMNSLKPEDTAVYYCAASATFWGQGTQVTVSS
polyreactivity (PSR sort gate): high polyreactivity

# polyreactivity (PSR sort gate) (sequence: QVQLVESGGGLVQAGGSLRLSCAASGRTFSYYAMGWYRQAPAKERELVAAIRSTGSTNYADSVKGRFTISRDNAKNTVYLQMNSLKPEDTAVYYCAARKYYQRGYDYWGQGTQVTVSS ) is high polyreactivity

###

experiment: yeast display, Sf9 membrane polyspecificity reagent, FACS + sequencing; frameworks hold sequencing errors
ASSAY ENDPOINT: polyreactivity (PSR sort gate)

Solved cases below.
INPUT SEQUENCE: QVQLVESGGGLVQAGGSLRLSCAPSGFTFYKNAMGWYRQAPGKERELVAAITSSGGSTYYADSVKGRFTISRDNAKNTVYLQMNSLKPEDTAVYYCAAYPQAYIADYDYWGQGTQVTVSS
polyreactivity (PSR sort gate): low polyreactivity
//
INPUT SEQUENCE: QVQLVESGGGLVQAGGSLRLSCAASGRTFVGYPIGWYRQAPGKESELVATITNDAITNADSVKGRFTISRDNAKNTVYLQMNSLKPEDTAVYYCNTRYSYGTAYEQYRYKALYDYWGQGTQVTVSS
polyreactivity (PSR sort gate): low polyreactivity
//
INPUT SEQUENCE: QVQLVESGGGVVQAGGSLRLSCAASGFILRAYAMGWYRQAPGKERELVAAITSATSTNYADSVKGRFTISRDNAKNTVYLQMNSLKPEDTAVYYCAADGGGGEFSYDSWGQGTQVTVSS
polyreactivity (PSR sort gate): low polyreactivity
//
INPUT SEQUENCE: QVQLVESGGGLVQAGGSLRLSCAASGFIFDYYAMGWYRQAPGKERELVAAIDDSGGSTYYADSVKGRFTISRDNAKNTVYLQMNSLKPEDTAVYYCNAGVGWHSYYSNYDYWGQGTQVTVSS
polyreactivity (PSR sort gate): low polyreactivity
//
INPUT SEQUENCE: QVHLVESGGGLVQAGGSLSLSCAASGFTYTSYAMGWYRQAPGTEREFVAAIRRSGSGTYYADSVKGRFTISRVNAKNTVYLQMNSLNPEDTAVYYCAVVPPRLYYHYDYWGQGTQVTVSS
polyreactivity (PSR sort gate): high polyreactivity

Now consider the entry below.
# polyreactivity (PSR sort gate) (sequence: QVQLEESGGGLVQAGGSLRLTCAASGRTFDFYAMGWYRQAPGKEREFVAAITFSTGSTTYADSVKGRFTISRDNAKNTVYLQMNSLKPEDTAVYYCNADAFNKISYVWYDYWGQGTQVTVSS ) is low polyreactivity

###

test: yeast display, Sf9 membrane polyspecificity reagent, FACS + sequencing; frameworks hold sequencing errors
ASSAY ENDPOINT: polyreactivity (PSR sort gate)

INPUT SEQUENCE: QVQHVESGGGLVQAGGSLRLSCAASGSTFARYGLGWYRQAPGKERELVASLTYTGGRTYADSVKGRFTFSRDNAKNTVYLQMNSLKPEDTAVYYCAARYRLWGQGTQVTVSS
OBS VALUE: low polyreactivity

INPUT SEQUENCE: QVQLVDSGGGLVQAGGSLRLSCAASGFIFKYYAMGWYRQEPGKERELVAAITIGGSTNYADSVKGRFTISRDNAKNTVYLQMNSLTPEDTAVYSCAADVQERYHRAWYDYWGQGTQVTVSS
OBS VALUE: low polyreactivity

###

assay: yeast display, Sf9 membrane polyspecificity reagent, FACS + sequencing; frameworks hold sequencing errors
ASSAY ENDPOINT: polyreactivity (PSR sort gate)

Solved cases below.
INPUT SEQUENCE: QVQLVESGGGLVQAGGSLRLSCAASGSIFLVNDMGWYRQAPGKERELVAAISYSGDSTYYADSVKGRFTISRDNAKNTVYLQMNSLKPEDTAVYYCAADVFIISYVAAWHVRIDEFEWGQGTQVTVSS
polyreactivity (PSR sort gate): low polyreactivity

INPUT SEQUENCE: QVQLVESGGGLVQAGGSLRLSCAASGNIFSSNAMGWYRQAPGKERELDAAITRSGGSTYYADSVKGRFTISRDNAKNTVYLQMNSLKPEDTAVYYCAARHYPRNSWGYDYWGQGTQVTVSS
polyreactivity (PSR sort gate): high polyreactivity

INPUT SEQUENCE: QVQLVDSGGGLVQAGGSLRLSCAASGRTFRYYDMGWYRPAPGEVREFVAAITWRGGSTYYADSVKGRFTISRDNAKNTVYSQMNSLKPEDTAVYYCATDSLRLYGGKRDLYYWGQGTQVTVSS
polyreactivity (PSR sort gate): low polyreactivity

INPUT SEQUENCE: QVQLVESGGGLVQAGGSLRLSCAASGSTFAYYVMGWYRQAPGKERELVAAITSSGGRTYYADSVKGRFTISRDNAKNTVYLQMNSLKPEDTAVYYCAKVSQRRVDNSDYDYWGQGTQVTVSS
polyreactivity (PSR sort gate): high polyreactivity

Now consider the entry below.
# polyreactivity (PSR sort gate) (sequence: QVQLVESGGGLVQAGGSLRLSCAASGRTFRYNVMGWYRQAPGKERELVASISRISGSTYYADSVKGRFTISRDNAKNTVYLQMNSLKPEDTADYYARAAGEYDYWGQGTQVTVSS ) is high polyreactivity

###

assay: yeast display, Sf9 membrane polyspecificity reagent, FACS + sequencing; frameworks hold sequencing errors
ASSAY ENDPOINT: polyreactivity (PSR sort gate)

Solved cases below.
INPUT SEQUENCE: QVQLVESGGGLVQAGGSLRLSCAASGRIFGYYAMGWYRQAPGKERELVADITESGTSTYYADSVKGRFTISRDNAKNTVYLHMNILKPEDTAVYYCAAGYWWRYALYGYWGQGTQVTVSS
ASSAY ENDPOINT: polyreactivity (PSR sort gate)
OBS VALUE: low polyreactivity
--
INPUT SEQUENCE: QLQLVESRGGLVQAGGSLRLSCASYGSIFIWYAMGWYRQATGKERELVAAITSSGSTNYADSVKGRFTISRDNAKNPVYLQMNSLKPEDTAVYYCAAEYTYYTYNLNYWGQGTQVTVSS
ASSAY ENDPOINT: polyreactivity (PSR sort gate)
OBS VALUE: low polyreactivity
--
INPUT SEQUENCE: QVQLVESGGGLVQAGGSLRLSCSASGIIFRGYAMGWYRQAPRKERELVAGITSGGDTNYADSVKGRFTISRDNAKNTVYLQMNSLKPEETAVYYCNVALQAKGMGYWGQGTQVTVSS
ASSAY ENDPOINT: polyreactivity (PSR sort gate)
OBS VALUE: low polyreactivity
--
INPUT SEQUENCE: QVQLVESGGGLVQAGGSLRLSCAASGIIMPSYVMGWYRQAPGKERELVAAITRSGGNTYYADSVKGRFTISRDNAKNTVYLQMNSLKPEDTAVYYCAARAPVRRYRAYEFDYWGQGTQVTVSS
ASSAY ENDPOINT: polyreactivity (PSR sort gate)
OBS VALUE: high polyreactivity
--
INPUT SEQUENCE: QVQLVESGGGLVQAGGSLRLSCAASGGIFPLNAMGWYRQAPGKERELVAAISRRGGSTYYADSVKGRFTISRDNAKNTVYLQMNSLKPEDTAVYYCAAVTVRKFYKGINYWYEYWGQGTQVTVSS
ASSAY ENDPOINT: polyreactivity (PSR sort gate)
OBS VALUE: high polyreactivity

# polyreactivity (PSR sort gate) (sequence: QVQLVESGGGLVQAGGSLRLSCAASGRIFEYYAMGWYRQAPGKERELVAAINTGGNTYYADSVKGRFTISRDNAKNTVYLLMNSLKPEDTAVYYCATYPIWYGGYLSGTDYDYWGQGTQVTVSS ) is low polyreactivity

###

test: yeast display, Sf9 membrane polyspecificity reagent, FACS + sequencing; frameworks hold sequencing errors
ASSAY ENDPOINT: polyreactivity (PSR sort gate)

INPUT SEQUENCE: QVQLVESGGGLVQAGGSLRLSCAASGSTFRRNAMGWYRQAPGKERELVASITSGGSTYYADSVKGRFTISRDNAKNTVYLQMNSLKPEDTAVYYCAVVWRGGYRWPYEYWGQGTQVTVSS
polyreactivity (PSR sort gate): low polyreactivity
//
INPUT SEQUENCE: QVQLVESGGGLVQAGGSLRLSCAASGSIFSRNAMGWYRQAPGKEREFVARISWSSTSTNYADSVKGRFTISRDNAKNTVYLQMISLKPEVTAVDYCSADFRGDRRFDYWGQGTQVTVSS
polyreactivity (PSR sort gate): low polyreactivity
//
INPUT SEQUENCE: QVQLVESGGGLVQAGGSLRLSCAASGSTFGAYDMGWYRQAPGKERELVAVISSRDGSTYYADSVKGRFTISRDNAKNTVYLQMNSLKPEDTAVYYCAADYPVPYNGGDGSWGQGTQVTVSS
polyreactivity (PSR sort gate): low polyreactivity
//
INPUT SEQUENCE: QVQLVESGGGLVQAGGSLRLSCAASGFTFRTYAMGWYRQAPGKERELVAGISQGGGSTYYADSVKGRFTISRDNAKNTVYLQMKSLKTEVTAVYYCAKARNSNARFGYWGQGTQVTVSS
polyreactivity (PSR sort gate): high polyreactivity
//
INPUT SEQUENCE: QVQLVESGGGLVQAGGSLRLSCAASGLTFRLNAMGWYRQAPGKERELVAAITRGGRTNYADSVKGRFTISRDNAKNTVYLQMNSLKPEDTAVYYCAARYVERHTDYYYWGQGTQVTVSS
polyreactivity (PSR sort gate): low polyreactivity
//
INPUT SEQUENCE: QLQLGESGRGGVQAGGSLRVSCAPSGLPFIYYAMGWYRPAPGKVRELVATISQSGSSTYYADSVKGRFTSSRDHATNTVDLQMNSLKPADTAVDYCNVSSVRWARFDYWGQGTQVTVSS
polyreactivity (PSR sort gate): high polyreactivity
//
INPUT SEQUENCE: QVQLVESGGGLVQAGGSLRLSCAASGRIFGHNAMGWYRQAPGKERELVARISSTGSTKYADSVKGRFTISRDNAKNTVYFQMNSLKPEDTAVYYCAAVDRLRSIRYDYWGQGTQVTVSS
polyreactivity (PSR sort gate): high polyreactivity
//
INPUT SEQUENCE: QVQLVESGGGLVHAGGSLRLSCAASGSTFGDNAMGWYRQAPGKERELVAAITSGTSTNYADSVKGRFTISRDNAKNTVYLQMNSLKPEDTAVYYCAAQYYGVAKQGLDEEDYWGQGTQVTVSS
polyreactivity (PSR sort gate): low polyreactivity

# polyreactivity (PSR sort gate) (sequence: QVQLVESGGGLVQAGGSLRLSCAASGRIFRGNAMGWYRQAPGKEREMVAAISRRSGSTYYADSVKGRFTISRDNAKNTVYLQMNSLKPEDTAVYYCAATSSLGDFRYDYWGQVTQVTVSS ) is high polyreactivity

# polyreactivity (PSR sort gate) (sequence: QVQLVESGGGLVQAGGSLRLSCAASGITFSHNAMGWYRQAPGKERELVAVIRWSGGRTYYADSVKGRFTISRDNAKNTVYLQMNSLKPEDTAVYYCAARPSTAFPYGKIMDYWGQGTQVTVSS ) is low polyreactivity

# polyreactivity (PSR sort gate) (sequence: QVQLVESGGCLVQAGGSLRLSCAASGRISGFNAMGWYRQAPGKERELVAANSYRGGSTYADSVKGRFTISRVNAKNTVYLQMNSLKPEDTAVYYCAAQSYWTFHTYYYWGQGTQVTVSS ) is low polyreactivity
